Each recorded value in this set is attributed to BindingDB's records for doi:10.1016/j.bmc.2007.06.041.

target-of-assay: UniProt O35433
test-details: Competition Binding Assay and Inhibition of Ca2+ Uptake Assay
reported-conditions: pH 7.4; 37 °C
outcome-measure: pKi
Give bare numbers, as −log10 of the molar value.

{"columns": ["compound", "recorded-measurement"],
 "data": [
  ["COc1cc(C(C)(C)NC(=S)NCc2ccc(C(C)(C)C)cc2)ccc1NS(C)(=O)=O", 6.18],
  ["C[C@@H](NC(=S)NCc1ccc(C(C)(C)C)cc1)c1ccc(NS(C)(=O)=O)c(F)c1", 7.43],
  ["CC(NC(=S)NCc1ccc(C(C)(C)C)cc1)c1ccc(NS(C)(=O)=O)c(F)c1 (centres undefined)", 8.04],
  ["COc1cc(C(C)NC(=S)NCc2ccc(C(C)(C)C)cc2)ccc1NS(C)(=O)=O (centres undefined)", 7.54],
  ["CC(C)C(NC(=S)NCc1ccc(C(C)(C)C)cc1)c1ccc(NS(C)(=O)=O)c(F)c1 (centres undefined)", 6.65]
]}

Provide pKi values for the following items, in order.
1. CC(C)(C)c1ccc(CNC(=S)NC(c2ccccc2)c2ccc(NS(C)(=O)=O)c(F)c2)cc1 (centres undefined)
2. Oc1cc2c(cc1O)CN(C(=S)NCCc1ccc(Cl)cc1)CCC2

Result:
[6.07, 6.28]

Need pKi for each of these compounds.
1. CC(NC(=S)NCc1ccc(C(C)(C)C)cc1)c1ccc(NS(C)(=O)=O)cc1 (centres undefined)
2. COc1cc(C2(NC(=S)NCc3ccc(C(C)(C)C)cc3)CC2)ccc1NS(C)(=O)=O

Result:
[7.83, 6.61]

---

Can you tell me pKi for the items I'm about to list?
target-of-assay: Transient receptor potential cation channel subfamily V member 1 (Rattus norvegicus, UniProt O35433)
Sequence (O35433 whole entry): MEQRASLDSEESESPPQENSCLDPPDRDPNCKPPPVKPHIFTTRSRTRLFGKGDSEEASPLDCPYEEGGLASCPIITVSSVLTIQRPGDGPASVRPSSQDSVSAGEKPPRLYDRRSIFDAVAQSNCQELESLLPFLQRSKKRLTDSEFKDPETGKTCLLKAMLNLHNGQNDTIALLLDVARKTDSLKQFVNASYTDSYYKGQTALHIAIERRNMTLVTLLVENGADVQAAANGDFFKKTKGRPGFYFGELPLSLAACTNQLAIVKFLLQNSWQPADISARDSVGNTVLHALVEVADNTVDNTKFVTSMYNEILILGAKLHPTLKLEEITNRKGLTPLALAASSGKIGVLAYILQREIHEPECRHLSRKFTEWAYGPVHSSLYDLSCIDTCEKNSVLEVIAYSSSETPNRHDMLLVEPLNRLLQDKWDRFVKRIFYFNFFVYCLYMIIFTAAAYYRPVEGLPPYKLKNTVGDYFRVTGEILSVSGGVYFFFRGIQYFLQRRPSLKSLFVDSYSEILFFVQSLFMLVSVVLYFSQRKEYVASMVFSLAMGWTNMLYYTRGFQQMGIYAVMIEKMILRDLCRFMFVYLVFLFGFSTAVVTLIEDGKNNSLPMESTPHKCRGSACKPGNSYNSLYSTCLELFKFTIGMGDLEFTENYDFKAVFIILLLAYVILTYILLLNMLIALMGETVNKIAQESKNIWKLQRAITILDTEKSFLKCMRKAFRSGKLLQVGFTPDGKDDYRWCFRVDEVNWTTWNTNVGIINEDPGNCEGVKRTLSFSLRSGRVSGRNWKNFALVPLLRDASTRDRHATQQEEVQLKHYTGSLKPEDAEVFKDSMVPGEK
test-details: Competition Binding Assay and Inhibition of Ca2+ Uptake Assay
reported-conditions: pH 7.4; 37 °C
Answers are plain numbers, as −log10 of the molar value.

{"columns": ["chem-smiles", "outcome-measure", "recorded-measurement"],
 "data": [
  ["CC(C)(C)c1ccc(CNC(=S)NC(C)(C)c2ccc(NS(C)(=O)=O)c(F)c2)cc1", "pKi", 6.01]
]}

Provide reported pKi for each item, in the same order as listed.
1. C[C@@H](NC(=S)NCc1ccc(C(C)(C)C)cc1)c1ccc(NS(C)(=O)=O)cc1
2. CC(C)(C)c1ccc(CNC(=S)NC2(c3ccc(NS(C)(=O)=O)cc3)CC2)cc1

Result:
1. 8.35
2. 7.22

---

target-of-assay: Transient receptor potential cation channel subfamily V member 1 (Rattus norvegicus)
test-details: Competition Binding Assay and Inhibition of Ca2+ Uptake Assay
reported-conditions: pH 7.4; 37 °C
Record form. Attribute: Ki. Fill in for each entry.
The answer should read as a number with its unit following.

Guide cases for Ki, answers given:
{"columns": ["compound", "Ki"],
 "data": [
  ["CC(C)(C)c1ccc(CNC(=S)NCc2ccc(NS(C)(=O)=O)c(F)c2)cc1", "9.2 nM"],
  ["CC(C)(C)c1ccc(CNC(=S)NC(Cc2ccccc2)c2ccc(NS(C)(=O)=O)c(F)c2)cc1 (stereo not given)", "700 nM"],
  ["CC(C)(C)c1ccc(CNC(=S)NC(C)(C)c2ccc(NS(C)(=O)=O)cc2)cc1", "1800 nM"],
  ["C[C@H](NC(=S)NCc1ccc(C(C)(C)C)cc1)c1ccc(NS(C)(=O)=O)c(F)c1", "2670 nM"]
]}

Next compound, Ki to be filled in.
Q: Fill in the recorded Ki for this compound, with Transient receptor potential cation channel subfamily V member 1 (Rattus norvegicus) as test system: CCC(NC(=S)NCc1ccc(C(C)(C)C)cc1)c1ccc(NS(C)(=O)=O)c(F)c1 (stereo not given)
Result: 54 nM
